tested on: Wolbachia pipientis; assay: Anti-Wolbachia Cell-Based Screen; type: functional; design: scale not given: in the data most compounds retested in dose-response had high values; conditions: 5 µM
The campaign covered roughly 48,000 compounds. About 13,000 (27%) showed an effect of 50% or more. This is one part of the list.

- input smiles: "CS(=O)(=O)N1CC[C@H]2O[C@@H](C(=O)NCc3ccco3)CC[C@H]21"
  tgt: "Wolbachia pipientis"
  measurement units: "%"
  Percent Effect: -0.8352
- input smiles: "Cc1noc(NCc2ccc(F)cc2)n1"
  tgt: "Wolbachia pipientis"
  measurement units: "%"
  Percent Effect: 5.861
- input smiles: "COc1ccc(CNc2n[nH]c(C)n2)cc1"
  tgt: "Wolbachia pipientis"
  measurement units: "%"
  Percent Effect: 96.08
- input smiles: "N#Cc1cccc(NS(=O)(=O)c2ccc(C(=O)O)cc2F)c1"
  tgt: "Wolbachia pipientis"
  measurement units: "%"
  Percent Effect: 100.6
- input smiles: "O=C(O)c1ccc(S(=O)(=O)Nc2ccc(Cl)c(F)c2)c(F)c1"
  tgt: "Wolbachia pipientis"
  measurement units: "%"
  Percent Effect: 4.995
- input smiles: "Cc1ccccc1NS(=O)(=O)c1ccc(C(=O)O)cc1F"
  tgt: "Wolbachia pipientis"
  measurement units: "%"
  Percent Effect: 0.9629
- input smiles: "Cc1csc(NC(=O)[C@@H]2C[C@H]3[C@H](CCN3S(C)(=O)=O)O2)n1"
  tgt: "Wolbachia pipientis"
  measurement units: "%"
  Percent Effect: 118.9
- input smiles: "Cc1nc(CNc2ncc(Br)cn2)n[nH]1"
  tgt: "Wolbachia pipientis"
  measurement units: "%"
  Percent Effect: -4.306
- input smiles: "Cc1ccc(F)c2c1CCCN2C(=O)c1cn(CC(=O)N(C)C)nn1"
  tgt: "Wolbachia pipientis"
  measurement units: "%"
  Percent Effect: 122.6
- input smiles: "COc1ccc(CNc2c(C)nn(C(C)C)c2C)cc1"
  tgt: "Wolbachia pipientis"
  measurement units: "%"
  Percent Effect: -4.166

* * *

system: Wolbachia pipientis; assay: Anti-Wolbachia Cell-Based Screen; assay type: functional; set-up: scale not given: in the data most compounds retested in dose-response had high values; conditions: 5 µM
In all, about 48,000 compounds went through this assay and about 13,000 (27%) showed an effect of 50% or more. This is one part of the list.
Reported Percent Effect is given for each of the following compounds.

- compound: "CN(C)CCNC(=O)c1cc(-c2cnc(N(C)C)nc2)cn1CC1CC1"
  Percent Effect [%]: 102.4
- compound: "CCc1cnc(N2CC[C@H]3[C@@H]2CCC(=O)N3c2cccnc2)nc1.O=C(O)C(F)(F)F.O=C(O)C(F)(F)F"
  Percent Effect [%]: 93.01
- compound: "CCc1nc(C2CCCN2C(=O)CCc2cscn2)no1 (stereo unspecified)"
  Percent Effect [%]: 107.6
- compound: "NC1CCc2c(ccc(=O)n2CC2CC2)C1 (stereo unspecified)"
  Percent Effect [%]: -25.6
- compound: "CCc1nc(C2CCCN2C(=O)c2c[nH]c(C)n2)no1 (stereo unspecified)"
  Percent Effect [%]: -5.998
- compound: "Cc1cc(C)n(CC2CCCCN2C(=O)c2ccc3nncn3c2)n1 (stereo unspecified)"
  Percent Effect [%]: 3.82
- compound: "Cc1cc(C)n(CC2CCCCN2C(=O)c2cnn(C)c2)n1 (stereo unspecified)"
  Percent Effect [%]: -4.108
- compound: "CCc1nc(C2CCCN2C(=O)CCc2nc(C(C)(C)C)no2)no1 (stereo unspecified)"
  Percent Effect [%]: 121.6
- compound: "C[C@@H](NC(=O)c1cccnc1)c1onc(-c2ccccc2)c1C(=O)O"
  Percent Effect [%]: -0.5339
- compound: "Cc1cc(C)n(CC2CCCN2C(=O)c2ccc(C(N)=O)cn2)n1 (stereo unspecified)"
  Percent Effect [%]: -1.212
- compound: "Cc1cc(C)n(CC2CCCN2C(=O)c2ccc(NC3CC3)nc2)n1 (stereo unspecified)"
  Percent Effect [%]: 104.7

* * *

system: Wolbachia pipientis; test: Anti-Wolbachia Cell-Based Screen; type: functional; parameters: scale not given: in the data most compounds retested in dose-response had high values; conditions: 5 µM
About 13,000 (27%) of roughly 48,000 compounds showed an effect of 50% or more. The list shows a part of the results.

- compound: "O=C(NCCNC(=O)c1ccc(Br)cc1)c1ccc(O)cc1"
  Percent Effect, %: 3.17
- compound: "CN(Cc1nccn1C)C1CCCN(CCCc2ccccc2)C1 (stereo unspecified)"
  Percent Effect, %: 7.706
- compound: "CCC(=O)N1CCC2(CC1)CC(CC(N)=O)c1ccc(F)cc12 (stereo unspecified)"
  Percent Effect, %: 3.39
- compound: "CC(=O)N[C@@H]1CN(C(=O)c2cnccn2)C[C@H]1c1ccc(C)cc1"
  Percent Effect, %: 4.61
- compound: "CCC(=O)N1CCC2(CC1)CC(CC(=O)N(C)C)c1ccc(F)cc12 (stereo unspecified)"
  Percent Effect, %: 103
- compound: "CCN(CC)C(=O)[C@@H]1C[C@@H](n2cc(-c3cccc(OC)c3)nn2)CN1"
  Percent Effect, %: -2.078

* * *

tested on: Wolbachia pipientis; assay: Anti-Wolbachia Cell-Based Screen; assay type: functional; parameters: scale not given: in the data most compounds retested in dose-response had high values; conditions: 5 µM
The campaign covered roughly 48,000 compounds. About 13,000 (27%) showed an effect of 50% or more. Some of the results follow.

- compound: "COCCNC(=O)c1cc(S(=O)(=O)N2CCCCCC2)cs1"
  measurement units: "%"
  Percent Effect: 97.81
- compound: "Cc1ccccc1OCC1CCCN(C(=O)Cc2c[nH]c(=O)[nH]c2=O)C1 (centres undefined)"
  measurement units: "%"
  Percent Effect: -4.345
- compound: "Cc1cc2ccccc2n1CCC(=O)N1CCC[C@H]1C(N)=O"
  measurement units: "%"
  Percent Effect: -2.793
- compound: "Cc1nccn1CCCn1cncc1-c1ccc2c(c1)CCCN2C.Cl"
  measurement units: "%"
  Percent Effect: 98.66
- compound: "Cc1nsc(N2CCCN(C(=O)c3ccc4[nH]ccc4c3)CC2)n1"
  measurement units: "%"
  Percent Effect: -10.99
- compound: "COCCC1CN(c2nc(-c3ccccc3)nc3c2CCNC3)CCO1 (centres undefined)"
  measurement units: "%"
  Percent Effect: -17.27
- compound: "CCS(=O)(=O)Cc1ccn(-c2cccc(F)c2)n1"
  measurement units: "%"
  Percent Effect: -0.3225
- compound: "Cc1nn(C)c(C)c1CCC(=O)N1CCc2sccc2C1"
  measurement units: "%"
  Percent Effect: 7.197
- compound: "Cn1ccnc1CN1CCCN(C(=O)c2ccc3ccccc3c2)CC1"
  measurement units: "%"
  Percent Effect: 100.6
- compound: "Cc1ccc(C(=O)N2CCC(Oc3ccc(F)cc3F)CC2)c(=O)[nH]1"
  measurement units: "%"
  Percent Effect: -17.81
- compound: "CC(C)c1nc(C2CCCN2CCc2ccccn2)no1 (centres undefined)"
  measurement units: "%"
  Percent Effect: 92.65
- compound: "CN(CCO)Cc1nnc(C2CCN(CC(C)(C)C)CC2)n1C"
  measurement units: "%"
  Percent Effect: 3.482
- compound: "CC(C)c1nc(C2CCCN2CCN2CCCCC2)no1 (centres undefined)"
  measurement units: "%"
  Percent Effect: 99.79
- compound: "CCn1c(CN(C)C)nnc1C1CCN(Cc2ccccc2)CC1"
  measurement units: "%"
  Percent Effect: 3.823
- compound: "CN(C)CCn1nc(C2CCN(Cc3ccccc3)C2)c2cccnc21 (centres undefined)"
  measurement units: "%"
  Percent Effect: 91.7
- compound: "CC(C)c1nc(C2CCCN2CCS(C)(=O)=O)no1 (centres undefined)"
  measurement units: "%"
  Percent Effect: 108.9
- compound: "Cc1nn(C)c(C)c1CCC(=O)N1CC(c2cccnc2)C1"
  measurement units: "%"
  Percent Effect: 23.02
- compound: "COCCNC(=O)c1cc(S(=O)(=O)N2CCCCC2)cs1"
  measurement units: "%"
  Percent Effect: 0.5112
- compound: "CC(C)n1ccnc1CN1CCCN(C(=O)c2cc(Cl)c[nH]2)CC1"
  measurement units: "%"
  Percent Effect: 1.928

* * *

Reported Percent Effect is given for each of the following compounds.
system: Wolbachia pipientis; assay: Anti-Wolbachia Cell-Based Screen; assay type: functional; parameters: scale not given: in the data most compounds retested in dose-response had high values; settings: 5 µM
The campaign covered roughly 48,000 compounds. About 13,000 (27%) showed an effect of 50% or more. The list shows a part of the results.
outcome measure: Percent Effect (%)

- compound: "Cc1cc(N2CCC(NCCOc3ccccc3)CC2)nc(C)n1"
  outcome measure: "Percent Effect"
  obs value: 2.138
- compound: "Cc1nc(CNCC2Cn3nncc3CO2)cs1.O=C(O)C(F)(F)F (centres undefined)"
  outcome measure: "Percent Effect"
  obs value: 95.04
- compound: "CC(Cn1ccnc1)NC(=O)NCCN1CCc2ccccc2C1 (centres undefined)"
  outcome measure: "Percent Effect"
  obs value: 3.376
- compound: "O=S(=O)(C1CC1)N1CCO[C@@H]2CN(Cc3ccco3)C[C@@H]2C1"
  outcome measure: "Percent Effect"
  obs value: 3.474
- compound: "CCS(=O)(=O)NCCNC(=O)N(Cc1ccc(C)o1)C(C)C"
  outcome measure: "Percent Effect"
  obs value: -16.03
- compound: "CC1COCCN1Cc1nc(-c2ccc(Br)s2)no1 (centres undefined)"
  outcome measure: "Percent Effect"
  obs value: 104.9
- compound: "CCCc1cnc(C)nc1N1CCC2(CC1)CNC(=O)O2"
  outcome measure: "Percent Effect"
  obs value: 7.463
- compound: "CCn1nc2c(cc1=O)CN(Cc1nc(-c3ccsc3)no1)CC2"
  outcome measure: "Percent Effect"
  obs value: -2.212
- compound: "COC(=O)c1ccc2ccn(CC3CCCN(C)C3)c(=O)c2c1 (centres undefined)"
  outcome measure: "Percent Effect"
  obs value: -29.85
- compound: "O=C(O)C(F)(F)F.c1cc(CNCC2Cn3nncc3CO2)co1 (centres undefined)"
  outcome measure: "Percent Effect"
  obs value: -8.195
- compound: "CCN(CC)CCNC(=O)c1ccc(-n2ccc3ccccc32)s1"
  outcome measure: "Percent Effect"
  obs value: 94.19
- compound: "O=C(Cc1csc(-c2nnc[nH]2)n1)N1CCCC1Cn1cccn1 (centres undefined)"
  outcome measure: "Percent Effect"
  obs value: 1.097
- compound: "O=C(NCCCN1CCCCC1)c1ccc(-n2ccc3ccccc32)s1"
  outcome measure: "Percent Effect"
  obs value: -1.697
- compound: "COCCN1CCC1c1cc(N)nc(C)n1 (centres undefined)"
  outcome measure: "Percent Effect"
  obs value: 66.06

meta.source: ChEMBL document CHEMBL3988442
